test system: MDA-MB-231 breast; assay: NCI-60 one-dose screen, 48 h (100 = growth as untreated, 0 = no growth, -100 = all killed); conditions: 10 µM unless noted
The panel holds about 83,000 compounds, 20% with a hit somewhere; the sample as a whole holds those more often.
measurement type: growth (%)

| molecule | result value |
| --- | --- |
| COc1cccc(-c2nnc(N)o2)c1 | 124 |
| c1cnc2n[nH]c(Nc3ncnc4c3sc3ncccc34)c2c1 | 97.4 |
| c1ccc2c(c1)[nH]c1c2cc[n+]2cc3c(cc12)CCCC3 | 31.4 |
| Cn1c(N)c(N=O)c(=O)[nH]c1=O | 112 |
| Fc1ccc([C@@H]2CCNC[C@H]2COc2ccc3c(c2)OCO3)cc1 | 11.5 |
| COc1ccc(-c2cncn2-c2ccc(-c3nc4cc(OC)c(OC)c(OC)c4s3)cc2)cc1N | 76.4 |
| COc1ccc(/C(=C2\O[C@@H]([C@H](O)CO)[C@H]3OC(C)(C)O[C@@H]23)c2cc(OC)c(OC)c(OC)c2)cc1O | 97 |
| Cc1c(C(N)=O)sc2ncn(Cc3ccccc3)c(=O)c12 | 102 |
| Clc1ccc(-n2cnc3c(Cl)ncnc32)cc1Cl | 87.5 |
| CN(C)c1cccc2c(S(=O)(=O)N[C@H]3CC[C@H]4[C@@H]5CCc6cc(O)ccc6[C@H]5CC[C@]34C)cccc12 | 35 |
| CN=C(NC)N/N=C(C)\C=N\NC(=NC)NC | 97.8 |
| Cc1cc(CC(=O)O)n(C)c1C(=O)c1ccc(Cl)cc1 | 109 |
| CCCCCCCCCCSc1ncnc2nc[nH]c12 | 75.3 |
| CCCCCCCCCCCCNc1ncnc2[nH]ncc12 | 68.6 |
| Nc1ccc(C2=NN(c3ccccc3)C(c3ccc(Cl)cc3)C2)cc1 (stereo not drawn) | 88.5 |
| CC(C)[O-].CC(C)[O-].CN(CCN(C)Cc1cc(F)cc(F)c1[O-])Cc1cc(F)cc(F)c1[O-].[Ti+4] | 11 |
| CC(CCC(=O)O)(NC(=O)c1ccc([N+](=O)[O-])cc1)C(=O)O (stereo not drawn) | 113 |
| CCCCCCC/C(=N\N=C(N)N)c1ccc(O)cc1 | -22.5 |
| CCOC(=O)c1ccccc1OC(=O)NNc1ccccc1 | 81.3 |
| Cn1cc(-c2csc(-c3c[nH]c4ncccc34)n2)c2cc(F)cnc21 | 57 |
| Cc1c(N(C)CS(=O)(=O)O)c(=O)n(-c2ccccc2)n1C | 107 |
| CCOC(=O)c1c(C)nc(C)c(C(=O)OCC)c1-c1cccnc1 | 113 |
| Cc1cc(C(C)(C)c2cc(C)c(O)c(CN(C)C)c2)cc(CN(C)C)c1O | 59.5 |
